These data points were gathered from ChEMBL document CHEMBL1139391.

- subject of test: C-X-C chemokine receptor type 3 (Homo sapiens, UniProt P49682)
- measurement description: Antagonist activity at human CXCR3 expressed in CHO cells assessed as inhibition of ITAC-stimulated [35S]GTPgammaS binding pretreated 30 mins before ITAC challenge
- Assay type: functional, cell-based
- setup conditions: cho
Item-by-item account of IC50
metric: IC50

> print(dat)
                                   molecule  value.reported
1  O=C1CCC(c2ccccc2)(C2CCN(Cc3ccccc3)CC2)C(=O)N1 (stereo in doubt; (-)-3a) [BENZETIMIDE]         > 10 µM
2  O=C1CCC(c2ccccc2)(C2CCN(Cc3ccccc3)CC2)C(=O)N1 (single isomer, unassigned; (+)) [BENZETIMIDE]         > 10 µM

* * *

- subject of test: C-X-C chemokine receptor type 3 (Homo sapiens, UniProt P49682)
- Sequence (P49682 whole entry): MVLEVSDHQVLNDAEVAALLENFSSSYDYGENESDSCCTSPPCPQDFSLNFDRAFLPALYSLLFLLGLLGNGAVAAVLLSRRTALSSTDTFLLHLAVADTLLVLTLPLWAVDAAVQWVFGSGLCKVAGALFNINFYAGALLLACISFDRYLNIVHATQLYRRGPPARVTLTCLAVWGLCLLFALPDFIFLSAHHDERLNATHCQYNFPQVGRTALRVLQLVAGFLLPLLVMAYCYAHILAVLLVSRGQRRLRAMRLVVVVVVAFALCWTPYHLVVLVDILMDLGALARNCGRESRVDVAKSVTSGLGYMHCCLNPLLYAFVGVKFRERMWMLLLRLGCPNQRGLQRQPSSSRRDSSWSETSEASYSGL
- measurement description: Antagonist activity at human CXCR3 expressed in CHO cells assessed as inhibition of ITAC-stimulated [35S]GTPgammaS binding pretreated 30 mins before ITAC challenge
- Assay type: functional, cell-based
Item-by-item account of log10 IC50
metric: log10 IC50 (log10 of the value in µM)

> print(dat)
                                    compound  value.reported
 1  NC(=O)CN1CCCC(c2ccccc2)(C2CCN(Cc3ccc(Br)cc3)CC2)C1 (stereo in doubt; (+)-47b)           -1.22
 2  CN1CCN(C(=O)c2cccc(C3(C4CCN(Cc5ccc(Br)cc5)CC4)CCC(=O)NC3=O)c2)CC1 (racemic)            0.10
 3  O=C1CCC(c2ccccc2)(C2CCN(Cc3ccc(F)cc3)CC2)C(=O)N1 (racemic)            0.66
 4  CC(=O)N1CCCC(c2ccccc2)(C2CCN(Cc3ccc(Br)cc3)CC2)C1 (single isomer, unassigned; (+))            0.36
 5  COc1ccc(S(=O)(=O)O)cc1C1(C2CCN(Cc3ccc(Br)cc3)CC2)CCC(=O)NC1=O (racemic)           -0.77
 6  O=C1CCC(c2ccc(F)cc2F)(C2CCN(Cc3ccc(Br)cc3)CC2)C(=O)N1 (racemic)           -0.92
 7  O=C1CCC(c2ccccc2)(C2CCN(Cc3ccc(Br)cc3)CC2)C(=O)N1 (racemic)           -0.11
 8  O=C1CCC(c2ccc(F)cc2F)(C2CCN(Cc3ccc(Br)cc3)CC2)C(=O)N1 (single isomer, unassigned; (-))           -1.22
 9  O=C1CCC(c2ccccc2)(C2CCN(Cc3ccc(Br)cc3)CC2)C(=O)N1 (stereo in doubt; (-)-1a)           -0.21
10  O=C(N1CCCC(c2ccccc2)(C2CCN(Cc3ccc(Br)cc3)CC2)C1)C(F)(F)F (racemic)           -0.16
11  CCC(=O)N1CCCC(c2ccccc2)(C2CCN(Cc3ccc(Br)cc3)CC2)C1 (racemic)           -0.54
12  CCCN1C(=O)CCC(c2ccccc2)(C2CCN(Cc3ccc(Br)cc3)CC2)C1=O (racemic)            0.70
13  NS(=O)(=O)N1CCCC(c2ccccc2)(C2CCN(Cc3ccc(Br)cc3)CC2)C1 (racemic)           -0.68
14  O=C1CCC(c2ccccc2)(C2CCN(Cc3ccc(Cl)c(F)c3)CC2)C(=O)N1 (single isomer, unassigned; (-))           -0.47
15  CC(=O)N1CCCC(c2ccccc2)(C2CCN(Cc3ccc(Br)cc3)CC2)C1 (single isomer, unassigned; (-))           -0.96
16  NC(=O)N1CCCC(c2ccccc2)(C2CCN(Cc3ccc(Br)cc3)CC2)C1 (racemic)           -0.60
17  O=C(Nc1ccccc1)N1CCCC(c2ccccc2)(C2CCN(Cc3ccc(Br)cc3)CC2)C1 (single isomer, unassigned; (+))            0.80
18  O=CN1CCCC(c2ccccc2)(C2CCN(Cc3ccc(Br)cc3)CC2)C1 (racemic)           -0.82
19  NC(=O)CN1CCCC(c2ccccc2)(C2CCN(Cc3ccc(Br)cc3)CC2)C1 (racemic)           -1.10
20  Nc1cccc(C2(C3CCN(Cc4ccc(Br)cc4)CC3)CCC(=O)NC2=O)c1 (racemic)           -0.49
21  O=C1CCC(c2ccc(F)cc2F)(C2CCN(Cc3ccc(Br)cc3)CC2)C(=O)N1 (single isomer, unassigned; (+))           -0.48
22  O=C(Nc1ccccc1)N1CCCC(c2ccccc2)(C2CCN(Cc3ccc(Br)cc3)CC2)C1 (racemic)           -1.22
23  O=C1CCC(c2ccc(F)cc2)(C2CCN(Cc3ccc(Br)cc3)CC2)C(=O)N1 (racemic)            0.10
24  O=C1CCC(c2ccccc2)(C2CCN(Cc3ccc(Cl)cc3)CC2)C(=O)N1 (racemic)           -0.08
25  O=C(Nc1ccccc1)N1CCCC(c2ccccc2)(C2CCN(Cc3ccc(Br)cc3)CC2)C1 (single isomer, unassigned; (-))           -1.52
26  CCOC(=O)N1CCCC(c2ccccc2)(C2CCN(Cc3ccc(Br)cc3)CC2)C1 (racemic)           -0.49
27  COc1ccc(C2(C3CCN(Cc4ccc(Br)cc4)CC3)CCC(=O)NC2=O)cc1 (racemic)            0.56
28  COc1ccc(CN2CCC(C3(c4ccccc4)CCC(=O)NC3=O)CC2)cc1 (racemic)            0.63
29  O=C1CCC(c2ccccc2)(C2CCN(Cc3ccc(Cl)c(C(F)(F)F)c3)CC2)C(=O)N1 (racemic)            0.40

* * *

- subject of test: C-X-C chemokine receptor type 3 (Homo sapiens, UniProt P49682)
- measurement description: Displacement of [125I]ITAC from CXCR3 in PHA/IL-2 activated human PBMC pretreated 30 mins before [125I]ITAC challenge after 1 hr by liquid scintillation counter
metric: IC50 (nM)

> print(dat)
                                   molecule  value.reported
1  O=C1CCC(c2ccccc2)(C2CCN(Cc3ccc(Br)cc3)CC2)C(=O)N1 (stereo in doubt; (-)-1a)             330

* * *

- subject of test: Muscarinic acetylcholine receptor M2 (Homo sapiens, UniProt P08172)
- Sequence (P08172 whole entry): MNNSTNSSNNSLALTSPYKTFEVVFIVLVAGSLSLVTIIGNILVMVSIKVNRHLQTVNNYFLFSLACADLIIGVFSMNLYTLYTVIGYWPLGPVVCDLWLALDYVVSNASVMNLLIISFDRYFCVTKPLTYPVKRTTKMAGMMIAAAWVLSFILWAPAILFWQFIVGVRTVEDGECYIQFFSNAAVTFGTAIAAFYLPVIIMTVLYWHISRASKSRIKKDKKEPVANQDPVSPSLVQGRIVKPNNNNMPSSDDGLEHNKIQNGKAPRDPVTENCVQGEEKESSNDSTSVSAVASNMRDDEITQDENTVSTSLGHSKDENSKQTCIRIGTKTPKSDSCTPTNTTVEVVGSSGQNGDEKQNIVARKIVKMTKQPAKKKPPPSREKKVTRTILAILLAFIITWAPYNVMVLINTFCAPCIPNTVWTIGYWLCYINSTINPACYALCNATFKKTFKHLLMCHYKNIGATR
- measurement description: Binding affinity to human muscarinic M2 receptor
metric: IC50

> print(dat)
                                   compound  value.reported
1  CC(=O)N1CCCC(c2ccccc2)(C2CCN(Cc3ccc(Br)cc3)CC2)C1 (single isomer, unassigned; (-))           10 µM
2  NC(=O)CN1CCCC(c2ccccc2)(C2CCN(Cc3ccc(Br)cc3)CC2)C1 (stereo in doubt; (+)-47b)         > 10 µM
3  O=C1CCC(c2ccccc2)(C2CCN(Cc3ccccc3)CC2)C(=O)N1 (stereo in doubt; (-)-3a) [BENZETIMIDE]         > 10 µM
4  O=C1CCC(c2ccccc2)(C2CCN(Cc3ccccc3)CC2)C(=O)N1 (single isomer, unassigned; (+)) [BENZETIMIDE]      < 0.001 µM
5  CC(=O)N1CCCC(c2ccccc2)(C2CCN(Cc3ccc(Br)cc3)CC2)C1 (single isomer, unassigned; (+))         > 10 µM
6  O=C1CCC(c2ccc(F)cc2F)(C2CCN(Cc3ccc(Br)cc3)CC2)C(=O)N1 (single isomer, unassigned; (+))      < 0.001 µM
